- EXPERIMENT_SUMMARY: Inhibition of human AQP4b-mediated water transport in Xenopus oocytes
- CONDITION_SUMMARY: Oocyte
TEST_READOUT: IC50 (nM)
Just the number please, in nM, no unit attached.

Incoming: For CC(=O)Nc1nnc(S(N)(=O)=O)s1 [ACETAZOLAMIDE] , what is its reported IC50?
Outgoing: 900
